Source: paper PMC10742472

# System: Calf-thymus DNA (ctDNA)
# test_description: Fluorescent intercalator displacement (FID) ctDNA binding assay with ethidium bromide
# condition_details: 75 µM ethidium bromide, 150 µM ctDNA, pH 7.0
# Binding Stoichiometry >= 1 gives fulfilled, anything below gives not fulfilled

stdin: Is the recorded value of Binding Stoichiometry equal to or greater than 1 for this molecule? [Cl][Pt][Cl].c1ccc(C2CCCN2)nc1 (stereo not drawn) [Complex 1, [Pt(PyPy)(Cl)2]]
stdout: fulfilled

stdin: Tell me whether Binding Stoichiometry is at least 1 here: N[C@H]1CCCC[C@@H]1N.[Pt+2].c1ccc(C2CCCN2)nc1 (stereo not drawn)
stdout: fulfilled

stdin: Has "N[C@H]1CCCC[C@@H]1N.[Pt+2].c1ccc(-c2nc3ccccc3[nH]2)nc1" a recorded Binding Stoichiometry greater than or equal to 1?
stdout: not fulfilled

stdin: State whether the measured Binding Stoichiometry reaches 1, counting equality as reaching it, for [Cl][Pt][Cl].c1ccc(-c2nc3ccccc3[nH]2)nc1 [Complex 3, [Pt(BImPy)(Cl)2]]
stdout: fulfilled

stdin: hey, is Binding Stoichiometry for this one >= 1? [Cl][Pt][Cl].c1ccc(-c2ncc[nH]2)nc1 [Complex 2, [Pt(ImPy)(Cl)2]]
stdout: fulfilled

stdin: Check the entry "N[C@H]1CCCC[C@@H]1N.[Pt+2].c1ccc(-c2ncc[nH]2)nc1" : does Binding Stoichiometry equal or exceed 1?
stdout: not fulfilled
